B1: KAT8 regulatory NSL complex subunit 2, residues 28 to 91; numbered along this chain, Q9H9L4 (parent)
chain: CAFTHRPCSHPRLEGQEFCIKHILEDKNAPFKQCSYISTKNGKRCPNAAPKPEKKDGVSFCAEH

# Variants of: B1
# EXPERIMENT: abundance fitness (aPCA) (normalised: wild type 0, dead -1); higher = more abundant; growth selection in yeast, the domain comes from the species named
# MEASUREMENT CONTEXT: Homo sapiens
OBSERVED PROPERTY: abundance fitness
Answer as a number with no unit attached.

Below, each entry is followed by its recorded abundance fitness result.
F3T ... -0.083
E25Y ... -0.05
A62C ... -0.018
R6W ... -0.118
A49D ... -0.339
S9G ... -0.13

Here is the next item to consider.
Problem: What measured abundance fitness goes with `H10R` ?
Result: -0.064
